Listing: Ratio IC50 of selected molecules
Species on record: Homo sapiens
Test: Selectivity ratio of IC50 for N-terminal GST-fused recombinant JAK2 (831 to 1132 residues) (unknown origin) to N-terminal GST-fused human recombinant JAK1 (866 to 1154 residues)
Quantity: Ratio IC50

{"columns": ["Compound string", "Reported relation", "Measured"],
 "data": [
  ["COc1ccc(F)c(-c2nc3c(NCC4CCNCC4)c(Cl)cnc3[nH]2)c1", "=", 267],
  ["COc1ccc(-c2nc3c(NCC4CCNCC4)c(Cl)cnc3[nH]2)cc1", "=", 85],
  ["COCCN1CCC(CNc2c(Cl)cnc3[nH]c(-c4ccc(OC)cc4)nc23)CC1", ">", 28],
  ["COc1cccc(-c2nc3c(NCC4CCN(C)CC4)c(Cl)cnc3[nH]2)c1", "=", 59]
]}
